test system: OVCAR-4 ovarian; assay: NCI-60 one-dose screen, 48 h; conditions: 10 µM unless noted
Compounds without any hit were thinned out: in the full panel of roughly 83,000, 20% have a hit. Active and inactive are the calls of the source. How the source made its calls: active means growth percent below 10; inactive means the rest.
Outcomes you can answer with include only these: class 1 = active, class 0 = inactive

Assay result, entry "COC(=O)[C@@H](C[C@H](Cc1ccccc1)NC(=O)c1csc([C@@H](C[C@H](C(C)C)N(C)C(=O)[C@@H](NC(=O)[C@H]2CCCCN2C)C(C)C)OC(C)=O)n1)NC(=O)OCc1ccccc1" — outcome?
class 0

Name the outcome recorded for "COC(=O)[C@@]1(O)C[C@H]2O[C@]1(C)n1c3ccccc3c3c4c(c5c6ccccc6n2c5c31)C(=O)NC4" in the assay.
class 1

Dear colleague, could you share the recorded outcome for "CC[C@H](C)[C@@H]([C@@H](CC(=O)N1CCC[C@H]1[C@H](OC)[C@@H](C)C(=O)N[C@H](C)[C@@H](O)c1ccccc1)OC)N(C)C(=O)[C@@H](NC(=O)[C@@H](NC)C(C)C)C(C)C" when you have a moment?
class 0

Per the records of this test, what outcome belongs to "O=c1[nH]cc(N(CCCl)CCCl)c(=O)[nH]1" ?
class 0

Test call for this compound, please: "CC(=O)Oc1ccccc1C(=O)NCCC[Se]C#N"
class 0

Short answer needed: outcome of this test for O=C1C=C(N2C3C4CCC(C4)C32)C(=O)C=C1c1ccccc1 (stereo unspecified) ?
class 0

Test call, this compound: "CCCCCCCCCCCCCC[P+](CCCCCC)(CCCCCC)CCCCCC"
class 1

For "O=C1NC(=O)C(=Cc2cccn2CCCCCn2c3ccccc3c(=O)c3ccccc32)C(=O)N1" , which call appears in the assay record?
class 0

Outcome? "C/C(=C\c1ccn(-c2ccc(N)cc2)n1)[C@@H]1C[C@@H]2O[C@]2(C)CCC[C@H](C)[C@H](O)[C@@H](C)C(=O)C(C)(C)[C@@H](O)CC(=O)O1"
class 0

Given "COc1ccc(/C=C\c2cc(OC)c(OC)c(OC)c2)cc1NC(=O)/C=C/c1ccc(OC)c(OC)c1" , state the outcome it received in this test.
class 0

What call does the record list for "COc1ccc(C(=O)c2sc3nc4c(cc3c2N)N2CCC4CC2)cc1OC" ?
class 0

Kindly provide the recorded test outcome for the following compound: "O=C(N/N=C\c1ccc(N(CCCl)CCCl)cc1)c1cccc([N+](=O)[O-])c1"
class 0

Please share the test call associated with "CC(=O)ONc1ccc([N+](=O)[O-])c(C(F)(F)F)c1" .
class 0

Recorded test outcome, item "C[C@]12CC[C@@H]3c4ccc(Oc5nc(N6CC6)nc(N6CC6)n5)cc4CC[C@H]3[C@@H]1CCC2=O"
class 0

Identify the outcome logged in this assay for the compound shown: "Cc1ccc(N2COOC3(OOC2)C2CC4CC(C2)CC3C4)cc1"
class 0

Fill in: this test's call for "CCOC(=O)[C@@H](C)C[C@H](Cc1ccccc1)NC(=O)c1csc([C@@H](C[C@H](C(C)C)N(C)C(=O)[C@@H](NC(=O)[C@H]2C[C@H](O)CCN2C)C(C)C)OC(C)=O)n1" is ___
class 0

What did the test return for O=C([O][Hg][CH2]C1COCC([CH2][Hg][O]C(=O)c2ccccc2)O1)c1ccccc1 (stereo unspecified) ?
class 0

What did this assay record as the result for CC(C)(C)N1CC1C#N (stereo unspecified) ?
class 0

Fill in: this test's call for "CC1=C(CN)C2=C(C)C3(CC3)[C@@](C)(O)C(=O)C2=C1" is ___
class 0

Write down the call the test reported for this compound. Item: NC(=S)c1cn(C2OC(CO)C(O)C2O)c2ncnc(N)c12 (stereo unspecified)
class 1

Hello, I am checking results. What call was entered for "CCNc1nc(Cl)nc(NCC)n1" ?
class 0

Would you mind telling me which call this test gave "COc1cc([C@@H]2c3cc4c(cc3[C@H](OC(C)=O)[C@H]3COC(=O)[C@H]23)OCO4)cc(OC)c1OC" ?
class 0

What did the test return for "COC(=O)[C@@H](C)C[C@H](Cc1ccccc1)NC(=O)c1csc([C@@H](C[C@H](C(C)C)N(C)C(=O)[C@@H](NC(=O)[C@H]2CCCN2C)C2CC2)OC(C)=O)n1" ?
class 0

Recorded call for "OCCCCCNC1CCCCC1" ?
class 0

Just curious, what result did O=C1CC2(CC3(Cl)C(Cl)=C(Cl)C2(Cl)C3(Cl)Cl)C(=O)O1 (stereo unspecified) get here?
class 0

Could you check what this test reported for "Nc1ccc(OCCNS(=O)(=O)c2cccc(S(=O)(=O)F)c2)c(Cl)c1" ?
class 0

# lookup: test call for "O=c1[nH]c2ccc([N+](=O)[O-])cc2c(=O)o1"
class 0

What is the recorded call for this compound in the test? O=C1CCC2(O)[C@@H]3Cc4ccc(O)c5c4[C@]2(CCN3Cc2ccoc2)C1O5 (stereo partly specified)
class 0

// return assay outcome for C/C=C(\C)C(=O)O[C@@H]1C(O)[C@H]2OC(COC(=O)CCC(=O)CCCCCC[C@H](CCCCC)O[C@@H]3OC(C)[C@H](OC(C)=O)C(O)[C@H]3O2)[C@H]1OC(=O)/C=C/c1ccccc1 (stereo partly specified)
class 0

Hi team, can someone confirm the assay call for "O=[N+]([O-])c1c(Br)sc(Br)c1[N+](=O)[O-]" ?
class 0

Outcome logged for "CNC(=O)Oc1ccc(N(C)C)cc1C(C)C" in this assay:
class 0

Please let me know the test result on file for CCN(CC)c1ccc2c(c1)OC(N)=C(C#N)C2c1cc(OC)c2c(c1)OCO2 (stereo unspecified) .
class 0

GET /call?item= "CCCCCCC(=O)NC1=C(N2CC2)C(=O)C(NC(=O)CCCCCC)=C(N2CC2)C1=O" returns the recorded outcome of this test.
class 0

Assay outcome for "COc1ccc(/C=C\c2cc(OC)c(OC)c(OC)c2)cc1NC(=O)/C=C/c1cc(OC)c(OC)c(OC)c1" : what was it?
class 0

Write down the call the test reported for this compound. Item: "CO[C@H]1CC[C@@]2(C)C(=CC[C@@H]3[C@@H]2CC[C@]2(C)C(=O)C(=O)C[C@@H]32)C1"
class 0

Please indicate how the test categorized Cc1ccc(C(Cc2ccccc2)NCCO)cc1 (stereo unspecified) .
class 0

====

system: 786-0 renal; assay: NCI-60 one-dose screen, 48 h (100 = growth as untreated, 0 = no growth, -100 = all killed); conditions: 10 µM unless noted
Compounds without any hit were thinned out: in the full panel of roughly 83,000, 20% have a hit.
Could you please report measured growth for the items listed next?
Give just the number in %; leave the unit off.

Which growth is listed for CCOC(=O)C(Cc1ccc(N(CCCl)CCCl)cc1)NC(=O)C(CC(C)C)NC(C)=O (stereo not given) ?
9.46

Need growth, item CN1C(=O)C23CC4(C56CC78SSC(CO)(C(=O)N7C5Nc5ccccc56)N(C)C8=O)c5ccccc5NC4N2C(=O)C1(CO)SS3 (stereo not given)
-97.4

Can you look up the measured growth of C[C@@H]1CCC2[C@@H](C)[C@H](OC(=O)CCC(=O)NCCNC(=O)Cc3cc(=O)oc4cc(N(C)C)ccc34)O[C@@H]3O[C@]4(C)CC[C@@H]1C23OO4 (stereo not given in full) for me?
36.7

Please give the measured growth for this compound: CC(C)COC(C[N+](=O)[O-])C(Cl)(Cl)Cl (stereo not given)
112

Suppose we examine the compound "ClCCN(CCCl)Cc1ccc(Nc2ccnc3cc(Cl)ccc23)cc1" ; what growth value has been reported?
8.84

// query growth value for entry "COc1ccc(/C=C\c2cc(OC)c(OC)c(OC)c2)c(NS(=O)(=O)c2ccc(C)cc2)c1O"
18.8

What does the data say about its growth? Entry: "CC[C@H](C)[C@H](NC(=O)[C@H]1CCCCN1C)C(=O)N(C)[C@H](C[C@@H](OC(C)=O)c1cccc(C(=O)N[C@@H](Cc2ccccc2)C[C@H](C)C(=O)O)n1)C(C)C"
23.1

growth for "COc1ccc(Nc2ccc([N+](=O)[O-])cc2[N+](=O)[O-])cc1CN(CCCl)CCCl" ?
18.4

Field request: growth | item: "C#Cc1ccc2c(c1)C(c1ccccc1F)=NCC(=O)N2C"
63.4

For "COc1ccc(N(CC(=O)NCCC[Te]c2ccccc2)C(=O)CCSC2=C(C)C(=O)c3ccccc3C2=O)cc1" , what is its reported growth?
-22.1

Param item = "N#CCCNc1ccccc1" ; retrieve measured growth.
120

Dear colleague, I am looking for the recorded growth of the following compound: "CC(=O)/C=C/c1ccc2c(c1)OCO2"
99

Quick one: growth for "COC(=O)[C@@H](C)C[C@H](Cc1ccccc1)NC(=O)c1csc([C@@H](C[C@H](C(C)C)N(C)C(=O)[C@@H](NC(=O)[C@H]2CCCCN2C)c2ccc(F)cc2)OC(C)=O)n1" ?
15.7

Need growth of "O=P(Oc1ccc(Cl)cc1)(N1CC1)N1CC1" , thanks.
84.5

What value of growth has been recorded for this entry: "COc1cccc2c1c(C(=O)c1ccco1)cn2Cc1ccc(F)cc1"
110

# input compound: "O=P(N1CC1)(N1CC1)N1CCc2ccccc21" ; wanted: its growth
106

Could you share which growth value was measured for "CC(=O)O[C@H]1CC[C@]2(C)[C@H]3CC[C@]4(C)[C@@H](OC(C)=O)CC[C@H]4[C@@H]3[C@@H](C)[C@]2(O)C1" ?
103

Which measured growth value corresponds to "CC[C@H](C)[C@H](NC(=O)c1ccccn1)C(=O)N(C)[C@H](C[C@@H](OC(C)=O)c1nc(C(=O)N[C@@H](Cc2ccccc2)C[C@H](C)C(=O)OC)cs1)C(C)C" ?
30.4

Bench note: what growth did "O=[N+]([O-])c1c(Br)sc(Br)c1[N+](=O)[O-]" show?
-36

Any idea what growth was measured for "O[C@H](CN1CC1)[C@@H](O)CN1CC1" ?
43.2

What value of growth has been reported for the following compound? "CC[C@H](C)[C@H](NC(=O)[C@H]1CCCCN1C)C(=O)N(C)[C@H](C[C@@H](O)c1nc(C(=O)N[C@@H](Cc2ccccc2)C[C@H](C)C(=O)O)cs1)C(C)C"
90.2

Which growth value belongs to "Fc1ccc(C2=CCNCC2)cc1" ?
78.8

Query: growth; subject: O=C1C2C(C(=O)[N]1[Hg][c]1ccccc1)C1(Cl)C(Cl)=C(Cl)C2(Cl)C1(Cl)Cl (stereo not given)
26

Given C=CC12CCN(CC1)C(C(O)c1ccnc3ccc(OC)cc13)C2 (stereo not given) , state its recorded growth.
79

growth for CC(C)(C)C(=O)OCOP(=O)(OCOC(=O)C(C)(C)C)C1CCCN(O)C1=O (stereo not given) ?
12.4

Report growth for "Oc1c(CCl)cc(Cl)cc1CCl" please.
114

# get_value(readout='growth', item= "CC[C@H](C)[C@H](NC(=O)[C@H]1CCCCN1C)C(=O)N(C)[C@H](C[C@@H](OC(C)=O)c1nc(C(=O)NC23CC(C(=O)OC)(C2)C3)cs1)C(C)C" )
9.6

Name the recorded growth for "COC(=O)C12CC(NC(=O)c3csc([C@@H](C[C@H](C(C)C)N(C)C(=O)[C@@H](NC(=O)[C@H]4CCCCN4C)C(C)C)OC(C)=O)n3)(C1)C2" .
18.2

Value lookup for growth; key = "O=NN1CCCc2cccc(O)c21"
27.2

Tell me the measured growth of CC1CN1CCCCN1CC1C (stereo not given) , please.
103

State the recorded growth for this entry: "COC(=O)[C@@H](C)C[C@H](Cc1ccccc1)NC(=O)c1csc([C@@H](C[C@H](C(C)C)N(C)C(=O)[C@@H](NC(=O)[C@H]2CCCCN2C)C2CCCCC2)OC(C)=O)n1"
3.22

Given the entry "CC(=O)[C@H]1CC[C@H]2[C@@H]3CC[C@H]4C[C@H](N)CC[C@]4(C)[C@H]3CC[C@]12C" , report its measured growth.
60.7

Bench note: what growth did "COC(=O)[C@@H](C)C[C@H](Cc1ccccc1)NC(=O)c1nc([C@@H](C[C@H](C(C)C)N(C)C(=O)[C@@H](NC(=O)[C@H]2CCCCN2C)C(C)C)OC(C)=O)sc1C(C)C" show?
-6.11

Please report the recorded growth for "CCCCCCCC[N+](C)(CCCCCCCC)CCCCCCCC" .
-95.7

growth for CC(=O)OC1CCC2C3CCC4=C/C(=N/OC(=O)c5ccc(N(CCCl)CCCl)cc5)CCC4(C)C3CC(C)C12 (stereo not given) ?
87
